# Test system: SF-295
# Assay Info: NCI tumour cell line growth inhibition, 48 h
Active and inactive are the calls of the source. Cut-off read from the data, not from the text of the source: active = GI50 up to about 1.1 µM and inactive = higher.
Outcome codes: active, inactive

>>> label_value("CN(CCNC(=O)c1nn(-c2ccc(Cl)cc2Cl)c2c1Cc1ccccc1-2)CCNC(=O)c1nn(-c2ccc(Cl)cc2Cl)c2c1Cc1ccccc1-2")
"inactive"
>>> label_value("OC1CSCCSCCCSCCSC1")
"inactive"
>>> label_value("O=C(CCl)N1CCN(c2ccccc2)CC1")
"inactive"
>>> label_value("Cc1cc2c(Br)cc(Br)c(O)c2nc1C(=O)c1ccccc1")
"inactive"
>>> label_value("COc1ccc(N2C(=O)c3c4c(c5c([nH]c6ncccc65)c3C2=O)CCC(C(C)(C)C)C4)cc1 (stereo not drawn)")
"inactive"
>>> label_value("CC(=O)NC1(C)CCC(C(C)(C)NC(C)=O)CC1 (stereo not drawn)")
"inactive"
>>> label_value("CC1(C)OC2C(O)C(CO)OC2(C(F)F)O1 (stereo not drawn)")
"inactive"
>>> label_value("O=c1cc(N2CCOCC2)n2c(ccc3ccccc32)n1")
"inactive"
>>> label_value("O=C(CSCC(=O)N/N=C\\c1cccc([N+](=O)[O-])c1)N/N=C\\c1cccc([N+](=O)[O-])c1")
"inactive"
>>> label_value("O=C(O)CN1C(=O)OC(c2ccccc2)C1=O (stereo not drawn)")
"inactive"
>>> label_value("Oc1c(CN2CCOCC2)ccc2cccnc12")
"inactive"
>>> label_value("NC(=O)c1ccc(S(=O)(=NS(=O)(=O)c2ccccc2)c2ccc(C(N)=O)cc2)cc1")
"inactive"
>>> label_value("COc1cc(Nc2cnc3cc(F)c(F)cc3n2)cc(OC)c1")
"inactive"
>>> label_value("C/C(=N/NC(=O)c1ccccc1O)c1ccc(/C(C)=N\\NC(=O)c2ccccc2O)c2nc3cc(C)c(C)cc3nc12")
"inactive"
>>> label_value("Cc1ccc(/C=c2\\cc3oc(=O)c4cccc(c4-3)c2=O)cc1")
"inactive"
>>> label_value("Cc1ccc(C2(c3ccc(F)cc3)OC(=O)c3ccccc32)c(O)c1 (stereo not drawn)")
"inactive"
>>> label_value("CCOP(=O)(OCC)C1C(CO)OC(n2ccc(=O)[nH]c2=O)C1O (stereo not drawn)")
"inactive"
>>> label_value("COC(=O)NC1C(C)OC(OC2C/C=C(/C)C3C=CC4C(OC5CC(OC6CCC(OC7CC(O)C(OC8CCC(O)C(C)O8)C(C)O7)C(C)O6)C(OC(C)=O)C(C)O5)C(C)CC(C)C4C3(C)/C(O)=C3/C(=O)OC4(CC(C=O)=CC(O)C4/C=C\\2C)C3=O)CC1(C)[N+](=O)[O-] (stereo not drawn)")
"active"
>>> label_value("CN(C)CCn1c2ccccc2c2nc3cc4ccccc4cc3nc21")
"inactive"
>>> label_value("Oc1cc(O)c2c(c1)OC(c1ccc(O)c(O)c1)C(O)C2c1c(O)cc(O)c2c1OC(c1ccc(O)c(O)c1)C(O)C2 (stereo not drawn)")
"inactive"
>>> label_value("O=C(c1ccco1)N(C(=S)OCCOc1ccccc1)c1ccccc1")
"inactive"
>>> label_value("COC(=O)C(C(=O)C(=O)Nc1c(Cl)cc([N+](=O)[O-])cc1Cl)c1nc2cc(C)c(C)cc2nc1O (stereo not drawn)")
"inactive"
>>> label_value("CC(=O)Nc1ccc(C(O)/C(=N/N)c2nc3ccc(Cl)cc3nc2O)cc1 (stereo not drawn)")
"inactive"
